Below, each of the molecules is paired with its reported pIC50 value.
target_or_test_system: Recombinant human FGFR1 (Homo sapiens, UniProt P11362)
Sequence (P11362 22-822): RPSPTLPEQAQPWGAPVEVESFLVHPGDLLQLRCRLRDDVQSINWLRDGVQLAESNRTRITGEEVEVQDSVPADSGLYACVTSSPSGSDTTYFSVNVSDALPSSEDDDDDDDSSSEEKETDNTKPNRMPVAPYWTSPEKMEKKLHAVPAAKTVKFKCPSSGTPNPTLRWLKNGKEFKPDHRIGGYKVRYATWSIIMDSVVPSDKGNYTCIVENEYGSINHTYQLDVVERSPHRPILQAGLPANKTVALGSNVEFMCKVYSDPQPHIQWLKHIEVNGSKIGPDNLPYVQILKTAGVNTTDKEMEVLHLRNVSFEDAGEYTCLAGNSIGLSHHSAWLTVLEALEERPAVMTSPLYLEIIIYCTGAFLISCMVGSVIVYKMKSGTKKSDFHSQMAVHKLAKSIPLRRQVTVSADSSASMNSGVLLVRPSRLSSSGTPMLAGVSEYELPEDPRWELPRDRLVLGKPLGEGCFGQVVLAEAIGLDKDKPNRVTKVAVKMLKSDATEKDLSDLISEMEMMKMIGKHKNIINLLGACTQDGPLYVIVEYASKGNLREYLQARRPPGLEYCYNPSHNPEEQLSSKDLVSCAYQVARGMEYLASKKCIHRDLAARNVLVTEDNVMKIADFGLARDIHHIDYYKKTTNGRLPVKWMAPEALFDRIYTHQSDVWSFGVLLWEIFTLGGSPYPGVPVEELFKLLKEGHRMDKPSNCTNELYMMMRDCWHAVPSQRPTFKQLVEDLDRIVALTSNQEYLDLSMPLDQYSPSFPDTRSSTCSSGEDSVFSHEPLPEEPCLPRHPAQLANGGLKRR
procedure_details: Transcreener Kinase Assay of FGFR1
Assay type: biochemical
condition_parameters: FP
In simple prose, pIC50 is minus the logarithm base ten of a concentration in moles per litre.

CCN1CCN(c2ccc(Nc3ncc(C#Cc4cc(C(=O)NC)cc(OC)c4F)cn3)cc2OC)CC1 [Compound 307] ... 7.72
CNC(=O)c1cc(OC)c(F)c(COc2cnc(Nc3ccc(N4C[C@@H](C)N[C@@H](C)C4)nc3)nc2)c1F [Compound 278] ... 7.64
CCN(CC)CCNC(C)c1ccc(Nc2ncc(OCc3cc(C(=O)NC)cc(OC)c3Cl)cn2)cc1 (stereo not shown) [Compound 295] ... 7.89

Identify pIC50 associated with the molecule CNC(=O)c1cc(COc2cnc(Nc3ccc(N4C[C@@H](C)N[C@@H](C)C4)c(OC)c3)nc2)c(F)c(OC)c1 [Compound 282]
7.74
